# Measurement target: RB69 exo^- DNA polymerase (D222A/D327A, wild type) (Escherichia phage RB69, UniProt Q38087, D222A/D327A)
# Sequence (Q38087 whole entry D222A/D327A): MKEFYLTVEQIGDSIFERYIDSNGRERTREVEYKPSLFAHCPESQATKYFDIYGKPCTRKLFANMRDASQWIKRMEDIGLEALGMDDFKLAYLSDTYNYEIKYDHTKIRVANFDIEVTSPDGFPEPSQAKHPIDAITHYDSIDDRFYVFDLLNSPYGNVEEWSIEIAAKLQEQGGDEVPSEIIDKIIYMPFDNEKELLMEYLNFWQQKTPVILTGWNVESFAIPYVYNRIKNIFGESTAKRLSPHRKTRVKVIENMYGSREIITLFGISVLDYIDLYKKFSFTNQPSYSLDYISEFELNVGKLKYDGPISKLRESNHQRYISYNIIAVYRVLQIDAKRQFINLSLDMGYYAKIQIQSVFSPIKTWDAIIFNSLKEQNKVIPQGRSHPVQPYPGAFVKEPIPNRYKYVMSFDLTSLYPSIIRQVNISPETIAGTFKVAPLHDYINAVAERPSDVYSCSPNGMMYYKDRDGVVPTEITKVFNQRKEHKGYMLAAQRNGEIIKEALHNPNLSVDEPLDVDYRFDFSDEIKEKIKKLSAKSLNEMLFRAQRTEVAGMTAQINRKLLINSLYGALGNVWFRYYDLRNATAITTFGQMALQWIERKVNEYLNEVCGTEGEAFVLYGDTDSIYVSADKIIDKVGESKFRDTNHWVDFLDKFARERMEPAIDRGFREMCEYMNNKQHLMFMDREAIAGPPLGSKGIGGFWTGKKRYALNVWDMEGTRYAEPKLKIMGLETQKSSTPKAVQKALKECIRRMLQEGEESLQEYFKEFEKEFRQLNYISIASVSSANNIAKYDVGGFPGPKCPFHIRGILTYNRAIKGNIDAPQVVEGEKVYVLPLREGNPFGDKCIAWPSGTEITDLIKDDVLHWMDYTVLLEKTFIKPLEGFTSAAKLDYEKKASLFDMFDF
# Format: biochemical, bacteriophage RB69
# Test settings: read-out: Kdincorp, app; opposite template 2AP; short G+C-rich DNA 4
Property: Kd (µM)
Give just the numeric value; µM need not be written.

Summary for this compound, `Cc1cn([C@H]2C[C@H](O)[C@@H](COP(=O)(O)O)O2)c(=O)[nH]c1=O` : Kd is 200

----------
# Measurement target: RB69 exo^- DNA polymerase (D222A/D327A, wild type) (Escherichia phage RB69, UniProt Q38087, D222A/D327A)
# Assay type: biochemical, bacteriophage RB69
# Test settings: read-out: Kdincorp, app; opposite template 2AP; short A+T-rich DNA 3
Property: Kd (µM)
Give just the numeric value; µM need not be written.

Summary for this compound, Cc1cn([C@H]2C[C@H](O)[C@@H](COP(=O)(O)O)O2)c(=O)[nH]c1=O [dTMP] : Kd is 114

----------
# Measurement target: RB69 Y567A exo^- DNA polymerase (Escherichia phage RB69, UniProt Q38087, D222A/D327A/Y567A)
# Sequence (Q38087 whole entry D222A/D327A/Y567A): as the sequence (Q38087 whole entry D222A/D327A) above, with Y567A counted along it
# Assay type: biochemical, bacteriophage RB69
# Test settings: read-out: Kdincorp, app; opposite template 2AP; long G+C-rich DNA 2
Property: pKd
The quantity pKd is defined as the negative base-10 logarithm of the molar concentration.

Summary for this compound, `Cc1cn([C@H]2C[C@H](O)[C@@H](COP(=O)(O)O)O2)c(=O)[nH]c1=O` : pKd is 3.74
